Test: folding stability dG unfold (combined trypsin and chymotrypsin); higher = more stable
METRIC: folding stability dG unfold (kcal/mol)
Numeric answer only, unit kcal/mol assumed.

Challenge: If you can, please state the reported folding stability dG unfold value of SAGGSAGGSAGGSIEIEITVELEDGYYLRISARFELNEDGSLKLEIKIELIKIEPGQELSAGGSAGGSAGGS [r10_241_TrROS_Hall] .
Response given: 3.18

Challenge: If you can, please state the reported folding stability dG unfold value of SAGGSAGGMKVLATTEDGEVYLFDLSEFDLSFEEWLNLGEEELAELLRKAFPEKEITLELVEEPSAGGSAGG [r6_164_TrMRF] .
Response given: 3.02

Challenge: If you can, please state the reported folding stability dG unfold value of SAGGSAGGSAPWYIAIYMPGNGRKRTYPFKSADDIKEEIKEHLGPGMNPDNVEIKIIPPDDISAGGSAGGSA [r18_350_TrROS] .
Response given: -0.0945

Challenge: If you can, please state the reported folding stability dG unfold value of SAGGSAGGPFVLKFPDPKNMNKLQEAASDHGMNMNRNPEKGTHVINFGGNMLDELQELPGIEIVSAGGSAGG [r6_726_TrROS] .
Response given: -0.769

Challenge: If you can, please state the reported folding stability dG unfold value of SAGGSAGGSAAYTTPDGTNIILKDPNRPVVSLYKKDPSTNTWTPVSTLPISEVPEEILELLSAGGSAGGSAG [r3_241_JUSTAS] .
Response given: 0.599

---

Assay: folding stability dG unfold from chymotrypsin proteolysis; higher = more stable
METRIC: folding stability dG unfold (kcal/mol)
Numeric answer only, unit kcal/mol assumed.

Challenge: If you can, please state the reported folding stability dG unfold value of SAGGMTPEEARKLAEELAKKLEEEGKEVEVKVEVNKDGKVVKIEIKPEGEKVTITLPDGEKVLELELPSAGG [r13_693_TrROS_Hall] .
Response given: 1

Challenge: If you can, please state the reported folding stability dG unfold value of SAGKVTVERDPSTNVVNVTVEVERERDVPPGAPVTETIIIPARVKFDEDGKLVEPISLDDILAAIRAAGSAG [r5_239_TrMRF] .
Response given: 0.684

Challenge: If you can, please state the reported folding stability dG unfold value of SAGGSAVSISTVTSTSFPGSGTSVKTYETPDFTVTVTTTRDPNGADTVEIHTDDPEAEKTVREYLASAGGSA [r15_42_JUSTAS] .
Response given: -0.348

Challenge: If you can, please state the reported folding stability dG unfold value of SAGGSAGGSAGMTLEIEVDPDNKVIELKIYIGGKPVEMTIVVTPNSGYIRIPDGGWIPIESAGGSAGGSAGG [r11_395_TrROS] .
Response given: 3.37

Challenge: If you can, please state the reported folding stability dG unfold value of SMKVEIPPELVEAIEKALAEKKPGEEVEIEFEHPDGPLIRVRIEKDGRVRIEVFEHPDKLIAEFEFEPKPSA [r9_132_TrMRF] .
Response given: 2.98

Challenge: If you can, please state the reported folding stability dG unfold value of SMPVTITITLHKDPNSDVIPVRLEMTDSAGNPIGEREIDYTTTEEEARERAVALAEEIAAATGYTIEFGESA [r9_31_JUSTAS] .
Response given: 0.266

Challenge: If you can, please state the reported folding stability dG unfold value of SAGGSAGGSAMKLLETKVSRSLVPETGVVVTPVTTTTLGPGGKREVIEETEVRVLPPDAPPPSAGGSAGGSA [r18_95_JUSTAS] .
Response given: -0.625

Challenge: If you can, please state the reported folding stability dG unfold value of SAGGSAGGSAGGKRRIQIPPDDPGMTAEQLADRLQKEFPENGVPVEITNIDDYGYIEIESAGGSAGGSAGGS [r10_579_TrROS] .
Response given: 0.962

Challenge: If you can, please state the reported folding stability dG unfold value of SAGHPWMFRAKVEYDDGKPVGEREINIPGMPIDDIASDLFNEPGLRKVKIEFYWMDGEPQEIEIPVKPSAGG [r19_269_TrROS] .
Response given: 0.457

Challenge: If you can, please state the reported folding stability dG unfold value of SAGGSAGGSAGGKIDRIQLHYNPGGNVYFRIYGPNGKPRYFMMPAEDLEDFPNAPIEIYPSAGGSAGGSAGG [r7_238_TrROS] .
Response given: 0.847

Challenge: If you can, please state the reported folding stability dG unfold value of SAGGSAMESFLGAAKEVLSQMEPGEIVLLPLERPDDKPLLVLLDPTTRRLVVFYPDGGYEEFDFPESAGGSA [r15_977_TrMRF] .
Response given: 2.9

Challenge: If you can, please state the reported folding stability dG unfold value of SAGGSAGGSMKTYTLPNGLRVQLVRVDKKTKTITLKVFDKNGELVEEIEIKVDEPVELLVVYPSAGGSAGGS [r12_960_TrROS_Hall] .
Response given: 2.69

Challenge: If you can, please state the reported folding stability dG unfold value of SEEEIVEEPPPETRTLTLELVDPETGELVATITVSPDGTVTLTVRTPDGEEKTITVPEGMSLEEALAAALSA [r9_346_TrROS_Hall] .
Response given: 4.39

Challenge: If you can, please state the reported folding stability dG unfold value of SKFKIDEIKYEPNKPYTIKVKLPDGTTIEIKYDPNKPNEVKIILTHPDGSKKEFTLPYNYPININLKVNPSA [r9_875_TrMRF] .
Response given: 2.05
